Data provenance: the supplement of paper PMC10201428

Entries annotated with measured relative integration efficiency (log2)
# System: VchCAST RNA-guided transposition machinery (E. coli BL21(DE3) host, lacZ target)
# protocol-notes: relative integration efficiency (T-LR orientation) vs wild-type transposon end (log2 (normalized fold change)); transposon end mutated: right end (5 bp flank + 75 bp right end); higher = more efficient transposition
# respond with the number and nothing more

ordered-residues: ACATTTGTTGATACAACCATAAAATGATAATTACACCCATAAATTGATAATTATCACACCCATAAATTGATATTGCCTCTGATCATAATTGTTATCCGCTCACAATTCCAGTCAGACGCACCGACAC
relative integration efficiency (log2): 0.885

Sure, the documented relative integration efficiency (log2) for ACATTTGTTGATACAACCCTAAAATGATAATTACACCCATAAATTGATCATTATCACCCCCAATTTAACTATAACGCTCTGATCATAGTCAGACCAACATTGCTACGACCCGTATTCGCACCGACAC is 0.404

Record ACATTTGTTGATACAACCATAAAATCATCATTACACCCATAAATTGATAATTATCCCACCCCATTTAACTATAACGCTCTGATCATAGTCAGACCAACATTGCTACGACCCGTATTCGCACCGACAC . Reported relative integration efficiency (log2): 0.992

For ACATTTGTTGATACAACCATAAAATCATCATTACACCCATCAATTGATAATTATCCCACCCCATTTAACTATAACGCTCTGATCATAGTCAGACCAACATTGCTACGACCCGTATTCGCACCGACAC the sequence record lists relative integration efficiency (log2) as -1.08

In plain terms, ACATTTGTTGATACAACCATAAAATGATAATTACACCCATAAATTGATAATTATCACACCCATAAATTGATATTGCCTCTGATCAATATGTAACCAAAAGTAAAATAGTCAGACCAAGCACCGACAC has a documented relative integration efficiency (log2) of 0.023
